Test system: T-380 tumors
assay: Hapten biodistribution, premix protocol with bifunctional antibody ECH037.2
Format: in vivo, nude mice
Parameters: unit not given here
conditionDescription: 24 hours; premix with 20 µg ECH037.2
assayEndpoint: TOTAL RECOV

Which TOTAL RECOV reading was recorded for the compound O=C(O)Cc1ccc(NC(=S)Nc2ccc(CC(CN(CC(=O)O)CC(=O)O)N(CC(=O)O)CC(=O)O)cc2)cc1 (stereo not shown) ?
59.7

Which TOTAL RECOV reading was recorded for the compound CC(=O)NC(CCCCNC(=S)Nc1ccc(CC(CN(CC(=O)O)CC(=O)O)N(CC(=O)O)CC(=O)O)cc1)C(N)=O (stereo not shown) ?
52.0

Which TOTAL RECOV reading was recorded for the compound CCCCCCCCNC(=S)Nc1ccc(CC(CN(CC(=O)O)CC(=O)O)N(CC(=O)O)CC(=O)O)cc1 (stereo not shown) ?
68.9

Which TOTAL RECOV reading was recorded for the compound O=C(O)CCCC(=O)NCCNC(=S)Nc1ccc(CC(CN(CC(=O)O)CC(=O)O)N(CC(=O)O)CC(=O)O)cc1 (stereo not shown) ?
52.0

Which TOTAL RECOV reading was recorded for the compound O=C(O)CN(CC(=O)O)CC(Cc1ccc(NC(=S)Nc2ccccc2)cc1)N(CC(=O)O)CC(=O)O (stereo not shown) ?
57.2

Which TOTAL RECOV reading was recorded for the compound CCCCNC(=S)Nc1ccc(CC(CN(CC(=O)O)CC(=O)O)N(CC(=O)O)CC(=O)O)cc1 (stereo not shown) ?
63.8

Which TOTAL RECOV reading was recorded for the compound O=C(O)CCCNC(=S)Nc1ccc(CC(CN(CC(=O)O)CC(=O)O)N(CC(=O)O)CC(=O)O)cc1 (stereo not shown) ?
50.8

###

Tested on: T-380 tumors
assay: Hapten biodistribution, premix protocol with bifunctional antibody ECH037.2
Type: in vivo, nude mice
conditionDescription: 48 hours; premix with 20 µg ECH037.2; 111In-labeled hapten i.v.
assayEndpoint: % DOSE PER GRAM, BLOOD (% DOSE PER GRAM)

Which % DOSE PER GRAM, BLOOD reading was recorded for the compound O=C(O)CCNC(=S)Nc1ccc(CC(CN(CC(=O)O)CC(=O)O)N(CC(=O)O)CC(=O)O)cc1 (stereo not shown) ?
7.6

[I] O=C(O)CN(CC(=O)O)CC(Cc1ccc(NC(=S)NCc2ccccc2)cc1)N(CC(=O)O)CC(=O)O (stereo not shown)
[II] NCCNC(=S)Nc1ccc(CC(CN(CC(=O)O)CC(=O)O)N(CC(=O)O)CC(=O)O)cc1 (stereo not shown)
[III] NC(=S)Nc1ccc(CC(CN(CC(=O)O)CC(=O)O)N(CC(=O)O)CC(=O)O)cc1 (stereo not shown)
Returns the items ordered by % DOSE PER GRAM, BLOOD, from maximum to minimum. // list labels; follow requested order
I, III, II
(I: 5.5 % DOSE PER GRAM, III: 3.8 % DOSE PER GRAM, II: 2.0 % DOSE PER GRAM)

[a] O=C(O)CN(CC(=O)O)CC(Cc1ccc(NC(=S)Nc2ccccc2)cc1)N(CC(=O)O)CC(=O)O (stereo not shown)
[b] O=C(O)CCCNC(=S)Nc1ccc(CC(CN(CC(=O)O)CC(=O)O)N(CC(=O)O)CC(=O)O)cc1 (stereo not shown)
[c] O=C(O)Cc1ccc(NC(=S)Nc2ccc(CC(CN(CC(=O)O)CC(=O)O)N(CC(=O)O)CC(=O)O)cc2)cc1 (stereo not shown)
[d] CCCCCCCCNC(=S)Nc1ccc(CC(CN(CC(=O)O)CC(=O)O)N(CC(=O)O)CC(=O)O)cc1 (stereo not shown)
Sort ascending by % DOSE PER GRAM, BLOOD. // list labels; follow requested order
d, c, a, b
(d: 0.5 % DOSE PER GRAM, c: 3.7 % DOSE PER GRAM, a: 5.4 % DOSE PER GRAM, b: 7.9 % DOSE PER GRAM)

[I] O=C(O)CCCC(=O)NCCNC(=S)Nc1ccc(CC(CN(CC(=O)O)CC(=O)O)N(CC(=O)O)CC(=O)O)cc1 (stereo not shown)
[II] CC(=O)NC(CCCCNC(=S)Nc1ccc(CC(CN(CC(=O)O)CC(=O)O)N(CC(=O)O)CC(=O)O)cc1)C(N)=O (stereo not shown)
Lab note: record which item had the higher % DOSE PER GRAM, BLOOD, I or II . Selection: enter the item's label.
I
